Listed here: items and their measured binding signal.
TARGET_OR_SYSTEM: d-enCas12a (Acidaminococcus sp., UniProt U2UMQ6 1-1307, E174R;S542R;K548R;D908A;E993A;D1235A)
ASSAY_INFO: Spec-seq (native PAGE EMSA with sequencing of bound and unbound); 25 mM Tris-HCl pH 7.4, 150 mM KCl, 5 mM MgCl2, 10% glycerol, 1 mM DTT, 40 ng/uL salmon sperm DNA; 400 nM Cas12a, 480 nM crRNA, 50 nM library, 37 C 1 h; native PAGE at room temperature; high values mean tight binding;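 further: relative affinity from the bound to unbound sequence frequency ratio in Spec-seq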
DETAILS: protein: recombinant
Your answer is read as lnKA, so omit the unit and give the number.

AGCA (dsDNA) DNA 1: GCTATCTAGTGCTCAGTACGCACTGAGCAAGGAAACTTCTGGCAGGACCAGGTCATGAGATCGGAAGAGCACACGTCTGAACTCCAGTCA DNA 2: TGACTGGAGTTCAGACGTGTGCTCTTCCGATCTCATGACCTGGTCCTGCCAGAAGTTTCCTTGCTCAGTGCGTACTGAGCACTAGATAGC RNA: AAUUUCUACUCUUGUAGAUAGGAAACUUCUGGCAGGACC
-3.23

In: For GATC (dsDNA) DNA 1: GCTATCTAGTGCTCAGTACGCACTGGATCAGGAAACTTCTGGCAGGACCAGGTCATGAGATCGGAAGAGCACACGTCTGAACTCCAGTCA DNA 2: TGACTGGAGTTCAGACGTGTGCTCTTCCGATCTCATGACCTGGTCCTGCCAGAAGTTTCCTGATCCAGTGCGTACTGAGCACTAGATAGC RNA: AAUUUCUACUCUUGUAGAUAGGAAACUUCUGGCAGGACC , write its binding signal.
Out: -3.86

In: Please list binding signal recorded for the binder ATTA (dsDNA) DNA 1: GCTATCTAGTGCTCAGTACGCACTGATTAAGGAAACTTCTGGCAGGACCAGGTCATGAGATCGGAAGAGCACACGTCTGAACTCCAGTCA DNA 2: TGACTGGAGTTCAGACGTGTGCTCTTCCGATCTCATGACCTGGTCCTGCCAGAAGTTTCCTTAATCAGTGCGTACTGAGCACTAGATAGC RNA: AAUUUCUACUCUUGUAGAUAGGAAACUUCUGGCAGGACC
Out: -0.456

In: Please give measured binding signal of the following entry: TGTG (dsDNA) DNA 1: GCTATCTAGTGCTCAGTACGCACTGTGTGAGGAAACTTCTGGCAGGACCAGGTCATGAGATCGGAAGAGCACACGTCTGAACTCCAGTCA DNA 2: TGACTGGAGTTCAGACGTGTGCTCTTCCGATCTCATGACCTGGTCCTGCCAGAAGTTTCCTCACACAGTGCGTACTGAGCACTAGATAGC RNA: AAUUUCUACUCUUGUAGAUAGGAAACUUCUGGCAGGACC
Out: -2.08
